Assay: Pharmacokinetic study in mice (IV and PO)
Format: in vivo
Conditions: mouse, plasma; PO (10 mg/kg), male CD1 mice
Sorting guide: entries reporting Cmax beneath 900 ng/mL go in the Met pile, the rest go in the Not met pile.

Enquiry: Find out if reported Cmax for C=CCn1c(=O)c2cnc(Nc3ccc(N4CCC(CN5CCC(c6ccc(NC7CCC(=O)NC7=O)cc6)CC5)CC4)cc3)nc2n1-c1cccc(C(C)(C)O)n1 (centres unmarked) is less than 900 ng/mL
Return: Met

Enquiry: Try C=CCn1c(=O)c2cnc(Nc3ccc(N4CCC(CN5CCN(c6ccc(NC7CCC(=O)NC7=O)cc6F)CC5)CC4)cc3)nc2n1-c1cccc(C(C)(C)O)n1 (centres unmarked) next.
Return: Not met

Enquiry: Try C=CCn1c(=O)c2cnc(Nc3ccc(C4CCN(CC5CCN(c6cccc7c6n(C)c(=O)n7C6CCC(=O)NC6=O)CC5)CC4)cc3)nc2n1-c1cccc(C(C)(C)O)n1 (centres unmarked) next.
Return: Not met

Enquiry: Try C=CCn1c(=O)c2cnc(Nc3ccc(N4CCN(CC5CCN(c6ccc(NC7CCC(=O)NC7=O)cc6F)CC5)CC4)cc3)nc2n1-c1ccc2c(n1)[C@@](O)(CC)CC2 (mixture of isomers) next.
Return: Not met

----------
Molecular target: UniProtKB P30291
Sequence (P30291 whole entry): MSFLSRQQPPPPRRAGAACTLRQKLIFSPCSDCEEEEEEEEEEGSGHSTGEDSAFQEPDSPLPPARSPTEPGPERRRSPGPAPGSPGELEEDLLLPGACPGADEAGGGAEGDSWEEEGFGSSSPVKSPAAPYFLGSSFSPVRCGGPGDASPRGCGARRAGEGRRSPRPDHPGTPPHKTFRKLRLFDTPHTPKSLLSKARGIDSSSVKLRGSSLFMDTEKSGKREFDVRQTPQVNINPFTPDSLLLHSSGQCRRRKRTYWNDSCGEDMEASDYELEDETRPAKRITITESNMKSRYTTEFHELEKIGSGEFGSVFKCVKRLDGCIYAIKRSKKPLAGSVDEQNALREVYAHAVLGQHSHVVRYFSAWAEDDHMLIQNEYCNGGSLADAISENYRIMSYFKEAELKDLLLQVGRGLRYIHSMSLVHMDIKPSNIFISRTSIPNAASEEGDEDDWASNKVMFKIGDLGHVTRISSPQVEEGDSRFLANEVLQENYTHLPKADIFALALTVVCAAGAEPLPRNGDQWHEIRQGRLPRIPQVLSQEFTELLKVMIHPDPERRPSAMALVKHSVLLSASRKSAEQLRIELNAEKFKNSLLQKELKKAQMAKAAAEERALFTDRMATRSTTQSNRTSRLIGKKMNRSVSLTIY
Assay: Wee1 protein degradation assay (HiBiT assay)
Assay type: cell-based
Conditions: engineered HT-1080 cells, 20 hours; maximum percentage of Wee1 degradation; read-out: HiBiT Wee1: Dmax
Exercise: state measured Dmax for each of the compounds provided.

Enquiry: What measured Dmax goes with C=CCn1c(=O)c2cnc(Nc3ccc(C4CCN(CC5CCN(c6ccc(NC7CCC(=O)NC7=O)cc6)CC5)CC4)cc3)nc2n1-c1cccc(C(C)(C)O)n1 (centres unmarked) [Compound 85] ?
Return: 50 to 75%

Enquiry: Try C=CCn1c(=O)c2cnc(Nc3ccc(N4CCN(CC5CCN(c6ccc(NC7CCC(=O)NC7=O)cc6Cl)CC5)CC4)cc3)nc2n1-c1cccc(C(C)(C)O)n1 (centres unmarked) [Compound 88] next.
Return: > 75%

Enquiry: Try C=CCn1c(=O)c2cnc(Nc3ccc(N4CCN(CC5CCN(c6ccc(NC7CCC(=O)NC7=O)cc6F)CC5)CC4)c(C)c3)nc2n1-c1ccc2c(n1)[C@@](O)(CC)CC2 (some centres unmarked) [Compound 128] next.
Return: > 75%

Enquiry: Try C=CCn1c(=O)c2cnc(Nc3ccc(N4CCN(CC5CCN(c6ccc(NC7CCC(=O)NC7=O)cc6F)CC5)[C@@H](C)C4)cc3)nc2n1-c1ccc2c(n1)[C@@](O)(CC)CC2 (some centres unmarked) [Compound 162] next.
Return: > 75%

Enquiry: Try C=CCn1c(=O)c2cnc(Nc3ccc(N4CCN(C5CCN(c6ccc7c(c6)C(=O)N(C6CCC(=O)NC6=O)C7=O)CC5)CC4)cc3)nc2n1-c1cccc(C(C)(C)O)n1 (centres unmarked) [Compound 40] next.
Return: 50 to 75%

Enquiry: Try Cc1cc(Nc2ncc3c(n2)N(C)CN(c2c(Cl)cccc2Cl)C3=O)ccc1C1CCN(CC2CN(c3ccc4c(c3)C(=O)N(C3CCC(=O)NC3=O)C4=O)C2)CC1 (centres unmarked) [Compound 18] next.
Return: < 50%

Enquiry: Try C=CCn1c(=O)c2cnc(Nc3ccc(N4CCC(CN5CCN(c6ccc(OC7CCC(=O)NC7=O)cc6F)CC5)CC4)cc3)nc2n1-c1cccc(C(C)(C)O)n1 (centres unmarked) [Compound 149] next.
Return: > 75%

Enquiry: Try C=CCn1c(=O)c2cnc(Nc3ccc(N4CCC(N5CC6(CN(c7ccc(NC8CCC(=O)NC8=O)cc7F)C6)C5)CC4)cc3)nc2n1-c1ccc2c(n1)[C@@](O)(CC)CC2 (some centres unmarked) [Compound 154] next.
Return: > 75%

Enquiry: Try C=CCn1c(=O)c2cnc(Nc3ccc(N4CCC(CN5CCN(c6ccc(NC7CCC(=O)NC7=O)cc6F)CC5)CC4)c(C)c3)nc2n1-c1ccc2c(n1)[C@@](C)(O)CC2 (some centres unmarked) [Compound 133] next.
Return: > 75%

Enquiry: Try C=CCn1c(=O)c2cnc(Nc3ccc(C4CCN(CC5CCN(c6cccc7c6n(C)c(=O)n7C6CCC(=O)NC6=O)CC5)CC4)c(C)c3)nc2n1-c1cccc(C(C)(C)O)n1 (centres unmarked) [Compound 97] next.
Return: 50 to 75%

Enquiry: Try C=CCn1c(=O)c2cnc(Nc3ccc(N4CCN(CC5CCN(c6ccc(NC7CCC(=O)NC7=O)cn6)CC5)CC4)cc3)nc2n1-c1cccc(C(C)(C)O)n1 (centres unmarked) [Compound 87] next.
Return: > 75%
